# system: galectin-4 (N-terminal domain) (Homo sapiens)
# Sequence (P56470 19-150 limits assumed, species assumed): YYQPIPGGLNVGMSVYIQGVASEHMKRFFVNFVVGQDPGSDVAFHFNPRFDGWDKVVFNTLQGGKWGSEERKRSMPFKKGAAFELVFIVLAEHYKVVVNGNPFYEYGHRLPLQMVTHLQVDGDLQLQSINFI
# test_method_notes: Fluorescence polarization-based galectin inhibition assay
# Assay type: binding
# particulars: fluorescence polarization, 20° C.; read-out: Calculated Kd Galectin 4 (N-terminal domain)
reported_property: Kd (µM)

For orientation, consider the following solved cases.
compound	Kd [µM]
O=c1oc2ccc(F)cc2cc1CO[C@H]1[C@@H](O)[C@@H](CO)O[C@@H](S[C@@H]2O[C@H](CO)[C@H](O)[C@H](OCc3cc4cc(F)ccc4oc3=O)[C@H]2O)[C@@H]1O [Compound 28]	180
O=c1oc2ccc(Cl)cc2cc1COC1C(O)[C@H](S[C@@H]2OC(CO)[C@H](O)C(OCc3cc4cc(Cl)ccc4oc3=O)C2O)OC(CO)[C@@H]1O (stereo partly shown) [Compound 27]	430
O=c1oc2cccc(F)c2cc1CO[C@H]1[C@@H](O)[C@@H](CO)O[C@@H](S[C@@H]2O[C@H](CO)[C@H](O)[C@H](OCc3cc4c(F)cccc4oc3=O)[C@H]2O)[C@@H]1O [Compound 31]	46

1. O=c1oc2cc(O)ccc2cc1COC1C(O)[C@H](S[C@@H]2OC(CO)[C@H](O)C(OCc3cc4ccc(O)cc4oc3=O)C2O)OC(CO)[C@@H]1O (stereo partly shown) [Compound 23]
2. O=c1oc2ccc(F)c(F)c2cc1CO[C@H]1[C@@H](O)[C@@H](CO)O[C@@H](S[C@@H]2O[C@H](CO)[C@H](O)[C@H](OCc3cc4c(F)c(F)ccc4oc3=O)[C@H]2O)[C@@H]1O [Compound 32]
3. O=c1oc2cccc(Cl)c2cc1CO[C@H]1[C@@H](O)[C@@H](CO)O[C@@H](S[C@@H]2O[C@H](CO)[C@H](O)[C@H](OCc3cc4c(Cl)cccc4oc3=O)[C@H]2O)[C@@H]1O [Compound 30]
4. O=c1oc2ccc(O)cc2cc1COC1C(O)[C@H](S[C@@H]2OC(CO)[C@H](O)C(OCc3cc4cc(O)ccc4oc3=O)C2O)OC(CO)[C@@H]1O (stereo partly shown) [Compound 24]
In this exercise, place the 4 compounds in ascending sequence of their recorded Kd. Returns: the labels arranged in the requested order.
2, 1, 3, 4

====

# system: galectin-9 (C-terminal domain) (Homo sapiens, UniProt O00182)
# Sequence (O00182 227-355 limits assumed, species assumed): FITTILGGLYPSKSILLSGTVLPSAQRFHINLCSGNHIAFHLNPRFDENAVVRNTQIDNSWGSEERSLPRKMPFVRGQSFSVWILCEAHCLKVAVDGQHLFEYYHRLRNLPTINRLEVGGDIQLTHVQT
reported_property: Kd (µM)

1. O=c1oc2ccccc2cc1CO[C@H]1[C@@H](O)[C@@H](CO)O[C@@H](S[C@@H]2O[C@H](CO)[C@H](O)[C@H](OCc3cc4ccccc4oc3=O)[C@H]2O)[C@@H]1O
2. O=c1oc2cccc(F)c2cc1CO[C@H]1[C@@H](O)[C@@H](CO)O[C@@H](S[C@@H]2O[C@H](CO)[C@H](O)[C@H](OCc3cc4c(F)cccc4oc3=O)[C@H]2O)[C@@H]1O
3. O=c1oc2ccc(OC(F)(F)F)cc2cc1COC1C(O)[C@H](S[C@@H]2OC(CO)[C@H](O)C(OCc3cc4cc(OC(F)(F)F)ccc4oc3=O)C2O)OC(CO)[C@@H]1O (stereo partly drawn)
Lab note: arrange the 3 molecules above from lowest to highest Kd. Returns: the labels arranged in the requested order.
1, 2, 3
(1: 2.4 µM, 2: 5.5 µM, 3: 21 µM)

====

Recorded measurements of Kd, one per entry
# system: galectin-4 (C-terminal domain) (Homo sapiens)
# Sequence (P56470 194-323 limits assumed, species assumed): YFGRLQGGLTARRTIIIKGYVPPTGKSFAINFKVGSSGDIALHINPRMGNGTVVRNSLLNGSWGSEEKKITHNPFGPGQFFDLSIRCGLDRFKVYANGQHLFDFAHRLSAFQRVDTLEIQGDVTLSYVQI
# test_method_notes: Fluorescence polarization-based galectin inhibition assay
# Type: binding
# particulars: 20° C., read-out: Calculated Kd Galectin 4 (C-terminal domain)

For orientation, consider the following solved cases.
compound	observed_result
O=c1oc2ccc3ccccc3c2cc1CO[C@H]1[C@@H](O)[C@@H](CO)O[C@@H](S[C@@H]2O[C@H](CO)[C@H](O)[C@H](OCc3cc4c(ccc5ccccc54)oc3=O)[C@H]2O)[C@@H]1O [Compound 25]	> 300 µM
O=c1oc2ccc(O)cc2cc1COC1C(O)[C@H](S[C@@H]2OC(CO)[C@H](O)C(OCc3cc4cc(O)ccc4oc3=O)C2O)OC(CO)[C@@H]1O (stereo partly shown) [Compound 24]	> 300 µM

Note down Kd recorded for O=c1oc2ccc(F)cc2cc1CO[C@H]1[C@@H](O)[C@@H](CO)O[C@@H](S[C@@H]2O[C@H](CO)[C@H](O)[C@H](OCc3cc4cc(F)ccc4oc3=O)[C@H]2O)[C@@H]1O [Compound 28]
> 1000 µM
